test_target: apical domain of CD71 (Screen 3: 'cynomolgus apical domain of human CD71') (cynomolgus (as paragraph 454 words it; ambiguous))
assay_summary: primary ELISA, RLU ratio to HSA
test_readout: Apical domain:HSA

binder: CD71-binding FN3 domain SEQ ID NO: 285 (designed binder) MSLPAPKNLVVSRVTEDSARLSWTATDAAFDSFEIGYWENAYKGEAIVLTVPGSERSYDLTGLKPGTEYVVFIGGVKGGVWSVPLSAIFTT
numeric_value: 368

P: CD71-binding FN3 domain SEQ ID NO: 306 (designed binder) MSLPAPKNLVVSRVTEDSARLSWTAPDAAFDSFEIGHFENLYLGEAIVLTVPGSERSYDLTGLKPGIEYWVQIGGVKGGVWSVSLSAIFTT
Q: CD71-binding FN3 domain SEQ ID NO: 266 (designed binder) MSLPAPKNLVVSRVTEDSARLSWTAPDAAFDSFFIGYLEPQPPGEAIYLLVPGSERSYDLTGLKPGTEYNVTIQGVKGGFPSLPLVATFTT
stdin: Which entry shows the lesser value of Apical domain:HSA here, P or Q ? Your choice should be expressed through its label.
stdout: Q
